method: NCI Yeast Anticancer Drug Screen. Data for the bub3 strain (AID 167)
applied-conditions: S. cerevisiae bub3 mutant strain, at 50.0 µM, active compounds read high
About 79,000 compounds went through this panel and 15% of them were active in at least one assay; those are over-represented in the sample as a whole.
outcome-measure: growth inhibition (%)

>>> measured("CC(=O)C1CCC2C1(C)CC1OC13C21C=CC2(CC(O)CCC23C)C2C(=O)OC(=O)C21 (configuration not stated)")
95.7
>>> measured("Nc1cc(Br)c2cccnc2c1O")
93.7
>>> measured("Clc1ccc(CSc2ncnc3c2ncn3C2CCCCO2)cc1 (configuration not stated)")
95.8
>>> measured("CC(=O)c1cccc([N+](=O)[O-])c1")
9.25
>>> measured("CC1=C/C(=C(/c2ccc(O)c(C)c2)c2ccccc2C(=O)O)C=CC1=O")
99.2
>>> measured("N#CCc1nc2c(s1)C(=O)c1ccccc1C2=O")
87.2
>>> measured("[O-][n+]1onc2ncccc21")
99.2
>>> measured("CCCCCCCCCCCC(=O)OCC1CO1 (configuration not stated)")
-6.5
>>> measured("CC1=C(C2CO2)C(=O)C(C)=C(C2CO2)C1=O (configuration not stated)")
98.2
>>> measured("Cc1c(C)c(O)c2c(c1O)C(=O)C=C(Cl)C2=O")
87.7
>>> measured("Cc1ccc(N=Nc2ncccc2O)cc1C")
97.7
>>> measured("CCCCCN(CCCCC)CCCNc1ccc(C)c2sc3ccccc3c(=O)c12")
98

----------
method: NCI Yeast Anticancer Drug Screen. Data for the mlh1 rad18 strain (AID 175)
applied-conditions: S. cerevisiae mlh1 rad18 strain growth inhibition; at 5.0 µM (retest, dose inferred, filed as 0.5); active compounds read high
Description: Growth inhibition of yeast strains with defined genetic alterations is measured as a screen for potential anti-cancer activity. Selected strains with alterations in DNA damage repair or cell cycle control were exposed to compounds and growth inhibition was measured relative to vehicle treated controls. The strain used in this assay is mlh1 rad18
The panel holds about 79,000 compounds, 15% with a hit somewhere; the sample as a whole holds those more often.
outcome-measure: growth inhibition (%)

>>> measured("CCCC/C=C1\\CCC(CN2CCOCC2)C1=O (stereo unspecified)")
61
>>> measured("C/C(=C/CC1CCC2C3=CCC4CC(O)CCC4(C)C3CCC12C)C(C)C(C)C (stereo unspecified)")
13
>>> measured("O=C(Nc1ccccc1Cl)c1ccc(Cl)c(Cl)c1")
-1
>>> measured("COc1cc(C)c2sc3ccccc3c(=O)c2c1NCCCN(C)C")
-3
>>> measured("COc1ccc(CCN2C(=O)C(=O)N(C3CCCCC3)C2=O)cc1OC")
-6
>>> measured("CC(C)=NOCCOC(=O)C(c1ccccc1)c1ccccc1")
-6

----------
method: NCI Yeast Anticancer Drug Screen. Data for the mlh1 rad18 strain (AID 175)
applied-conditions: S. cerevisiae mlh1 rad18 strain growth inhibition; at 50.0 µM (retest, dose inferred, filed as 5.0); active compounds read high
This is part of a sample that, as a whole, favours compounds with a hit. Of some 79,000 tested, about 15% had one in any assay.
Label true when growth inhibition is at or above 60%; otherwise label false.

>>> label("COc1cc(OC)c(/C=C\\c2ccnc3ccccc23)c(OC)c1")
"true"
>>> label("CCCN1CSC(=S)N(CCC)C1")
"true"
>>> label("CCOC(=O)C(C)(C)C")
"false"
>>> label("O=C1c2cccc(NCCNCCO)c2C(=O)c2cccc(NCCNCCO)c21")
"false"
>>> label("CCOC(=O)N1CCN(C=S)CC1")
"false"
>>> label("CSc1cc2c(cc1N)Cc1ccccc1-2")
"true"
>>> label("CC1(C)CC(=O)C(C(c2ccc3c(c2)OCO3)N2CCOCC2)C(=O)C1 (stereo not drawn)")
"false"
>>> label("Cc1ccc(Nc2nc3nc[nH]c3c(=O)[nH]2)cc1CO")
"false"
>>> label("Cn1c(=S)c2[nH]c(SCCN3CCCCC3)nc2n(C)c1=O")
"false"
>>> label("O=C1C=CCCCC1(c1ccccc1)c1ccccc1")
"false"
>>> label("ClC1c2ccccc2Cc2cccnc21 (stereo not drawn)")
"true"
>>> label("Clc1ccc2c(NC3CCC(N4CCCCC4)CC3)ccnc2c1 (stereo not drawn)")
"true"
>>> label("CCCCOC(=O)c1n[nH]c(C)c1N=NN(C)C")
"true"

----------
method: NCI Yeast Anticancer Drug Screen. Data for the sgs1 mgt1 strain (AID 161);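 note: 0% = growth of cultures given vehicle only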
applied-conditions: S. cerevisiae sgs1 mgt1 strain, at 50.0 µM (retest, dose inferred, filed as 5.0)
Compounds without any hit were thinned out: in the full panel of roughly 79,000, 15% have a hit. Activity calls are given as the source filed them. No stated cut-off is given here; in the data, active means growth inhibition above about 70%; inactive means the rest.
Outcome codes: active, inactive

>>> label("CC/C(=N\\OC(=O)Nc1ccccc1)c1ccc(OC(=O)Nc2ccccc2)cc1")
"inactive"
>>> label("Nc1nc(-c2cccnc2)nc(N)c1N=O")
"active"
>>> label("COc1ccc(NS(=O)(=O)c2ccc(F)cc2)cc1")
"inactive"
>>> label("Cc1ccc(N=Nc2ncccc2O)cc1C")
"active"
>>> label("COc1ccc(-c2c(-c3ccccc3)c(C)nc3[nH]c(=S)[nH]c(=S)c23)cc1OC")
"active"
>>> label("COc1ccc(I)c(C=NC2CCCCC2)c1C")
"active"
>>> label("CCCC(CC)c1c(O)c(O)c(C(CC)CCC)c(C(CC)CCC)c1C(CC)CCC (stereo unspecified)")
"active"
>>> label("O=[N+]([O-])c1ccc(/C=N\\OCc2cscn2)cc1")
"active"
>>> label("CC1=Cc2cc3[n-]c(cc4nc(cc5[n-]c(cc1n2)cc5C)C(C)=C4CCC(=O)O)c(CCC(=O)O)c3C.[Pd+2]")
"active"
>>> label("CC1(C)OC2C(CO)OC(n3ncc(=S)[nH]c3=O)C2O1 (stereo unspecified)")
"inactive"
>>> label("CC(=O)Nc1ccc2c(ccc3cccc[n+]32)c1")
"inactive"

----------
method: NCI Yeast Anticancer Drug Screen. Data for the cln2 rad14 strain (AID 165);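 note: 0% = growth equal to vehicle treated cultures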
applied-conditions: S. cerevisiae cln2 rad14 strain, at 50.0 µM
Method: Growth inhibition of yeast strains with defined genetic alterations is measured as a screen for potential anti-cancer activity. Selected strains with alterations in DNA damage repair or cell cycle control were exposed to compounds and growth inhibition was measured relative to vehicle treated controls. The strain used in this assay is cln2 rad14
The panel holds about 79,000 compounds, 15% with a hit somewhere; the sample as a whole holds those more often. The source made the active and inactive calls. Cut-off read from the data, not from the text of the source: active = growth inhibition above about 70%; inactive = the rest.
Outcome codes: active, inactive

>>> label("COc1ccc(NS(=O)(=O)c2ccc(N=Cc3c4ccccc4nc4cc(Cl)ccc34)cc2)nn1")
"inactive"
>>> label("N#Cc1cccc(C[P+](c2ccccc2)(c2ccccc2)c2ccccc2)c1")
"inactive"
>>> label("C(=N\\Nc1c2ccccc2nc2ccccc12)/c1ccc2c(c1)OCO2")
"active"
>>> label("COC1(OC)C2(Cl)C(Cl)=C(Cl)C1(Cl)C1C2C2CC1(C(=O)O)c1ccccc12 (stereo not given)")
"active"
>>> label("CC(C)CCN1CCC2(CCCCC2)CC1")
"active"

----------
method: NCI Yeast Anticancer Drug Screen. Data for the bub3 strain (AID 167)
applied-conditions: S. cerevisiae bub3 mutant strain, at 5.0 µM (retest, dose inferred, filed as 0.5), active compounds read high
Method: Growth inhibition of yeast strains with defined genetic alterations is measured as a screen for potential anti-cancer activity. Selected strains with alterations in DNA damage repair or cell cycle control were exposed to compounds and growth inhibition was measured relative to vehicle treated controls. The strain used in this assay is bub3
About 79,000 compounds went through this panel and 15% of them were active in at least one assay; those are over-represented in the sample as a whole.
Reported growth inhibition values are given for each entry in this list.
outcome-measure: growth inhibition (%)

>>> measured("CC[N+]1(C)CC2CCC(CC2)C1 (configuration not stated)")
-3
>>> measured("O=C(O)c1ccccc1C(c1ccccc1)c1ccccc1")
25
>>> measured("Cc1ccc(S(=O)(=O)CC2(Br)CCc3ccccc3C2=O)cc1 (configuration not stated)")
12
>>> measured("COc1cc(/C=C\\C(=O)c2cccc(O)c(=O)c2)cc(OC)c1OC")
2
>>> measured("O=C1C(Cl)=C(Nc2ccc(S(=O)(=O)Nc3ccccn3)cc2)C(=O)c2ccccc21")
99
>>> measured("c1ccc(CC[n+]2csc3ccccc32)cc1")
0
>>> measured("Cc1c(O)/c(=C\\O)c2nc3c(=O)ccc(C(=O)NCCN(C)C)c3[nH]c2c1=O")
19
>>> measured("O=C(CSc1cc[o+]cc1)c1cccc([N+](=O)[O-])c1")
4
>>> measured("O=C(O)C1C2CC3CC(C2)CC1C3 (configuration not stated)")
16
>>> measured("CC(=O)OC1CCC2(C)C(CCC3C2CCC2(C)C4CCC32OC(=O)C4CC(=O)O)C1 (configuration not stated)")
-2
>>> measured("N#CC(C(=O)C(N)=O)c1ccc(Cl)cc1Cl (configuration not stated)")
-1
>>> measured("CCOC(=O)c1c(C)[nH]c(C(=O)C(N)C(=O)OCC)c1C (configuration not stated)")
-3
>>> measured("Clc1ccc2c(NC3CCC(N4CCCCC4)CC3)ccnc2c1 (configuration not stated)")
94
>>> measured("CCSc1c2ccccc2nc2c(OC)ccc(OC)c12")
-7
>>> measured("O=C(Nc1ccccc1Cl)c1ccc(Cl)c(Cl)c1")
1
>>> measured("COC(=O)/C(=N\\NC(=O)c1ccccc1O)C(C#N)c1ccc(Cl)cc1 (configuration not stated)")
-3
>>> measured("COc1ccc2ccccc2c1/C=C/C(=O)c1ccccc1")
-8
>>> measured("CC1=Cc2cc3[n-]c(cc4nc(cc5[n-]c(cc1n2)cc5C)C(C)=C4CCC(=O)O)c(CCC(=O)O)c3C.[Pd+2]")
-3
>>> measured("Oc1ccc(O)c2nc3ccccc3nc12")
6
>>> measured("CC1(C)OC(C(COC(=O)c2ccc([N+](=O)[O-])cc2)OS(=O)(=O)c2ccc([N+](=O)[O-])cc2)C(C(SCc2ccccc2)SCc2ccccc2)O1 (configuration not stated)")
-2
>>> measured("CC[n+]1c(/C=C/c2ccc(N(C)C)cc2)ccc2ccccc21")
1
>>> measured("O=C(c1ccccc1)C(c1ccccc1)C1(O)C(=O)Nc2c(Cl)cc(Cl)cc21 (configuration not stated)")
-5
